relative viability EC50 overview
Tested on: Caco-2
method: relative viability EC50 (midpoint between 100% and the lowest measured viability); higher = less toxic
setup conditions: 72 h

{"columns": ["compound", "target or test system", "relative viability EC50"],
 "data": [
  ["COC(=O)C(Cc1ccc(OCCn2c(=O)sc3cc(C(=O)c4ccccc4)ccc32)cc1)C(=O)OC", "Caco-2", "> 10 µM"],
  ["NC1=N[C@@](c2cccc(-c3cncnc3)c2)(c2ccnc(C(F)F)c2)c2cccc(F)c21 [AZD3839]", "Caco-2", "> 10 µM"],
  ["COC(=O)C[C@](O)(CCCC(C)(C)O)C(=O)O[C@@H]1C(OC)=C[C@]23CCCN2CCc2cc4c(cc2[C@H]13)OCO4 [homoharringtonine]", "Caco-2", "0.099 µM"],
  ["CC(C)(Sc1cc(C(C)(C)C)c(O)c(C(C)(C)C)c1)Sc1cc(C(C)(C)C)c(O)c(C(C)(C)C)c1 [probucol]", "Caco-2", "> 10 µM"],
  ["COc1c(C)cnc(Cn2cc(C#CCC(C)(C)O)c3c(Cl)nc(N)nc32)c1C [EC-144]", "Caco-2", "0.189 µM"],
  ["NCc1ccc(S(N)(=O)=O)cc1 [mafenide]", "Caco-2", "> 10 µM"],
  ["CCn1c(=O)c2c(nc(/C=C/c3ccc(OC)c(OC)c3)n2C)n(CC)c1=O [istradefylline]", "Caco-2", "> 10 µM"],
  ["C1COC(NC(C2CC2)C2CC2)=N1 [rilmenidine]", "Caco-2", "> 10 µM"],
  ["COC(=O)C1=C(C)NC(C)=C(C(=O)OC)C1c1ccccc1[N+](=O)[O-] [nifedipine]", "Caco-2", "> 10 µM"],
  ["NCCCC[C@H](N)C(=O)O [L-lysine]", "Caco-2", "> 10 µM"],
  ["Cn1cc(C(=O)C(=O)N[C@H]2CN3CCC2CC3)c2ccccc21", "Caco-2", "> 10 µM"],
  ["O=C(Nc1ccccc1)N1CCC(Cc2cnc3ccccc3c2)CC1 [PF-750]", "Caco-2", "> 10 µM"],
  ["N#Cc1ccc(C(c2ccc(C#N)cc2)n2cncn2)cc1 [letrozole]", "Caco-2", "> 10 µM"],
  ["C#C[C@]1(O)CC[C@H]2[C@@H]3CCC4=CC(=O)CC[C@]4(C)[C@H]3CC[C@@]21C [ethisterone]", "Caco-2", "> 10 µM"],
  ["CC(=O)C1=C(O)[C@@H]2[C@H]3c4c[nH]c5cccc(c45)C[C@H]3C(C)(C)N2C1=O [cyclopiazonic-acid]", "Caco-2", "> 10 µM"],
  ["O=C(O)C[C@H]1CC[C@H](c2ccc(-c3ccc(Nc4ccc(C(F)(F)F)nc4)cn3)cc2)CC1 [LCQ908]", "Caco-2", "> 10 µM"],
  ["Fc1ccc(C(OCCN2CCN(C/C=C/c3ccccc3)CC2)c2ccc(F)cc2)cc1", "Caco-2", "> 10 µM"],
  ["CC(C)c1ccc2c(c1)CC[C@H]1[C@](C)(CN)CCC[C@]21C [lylamine]", "Caco-2", "3.03 µM"]
]}
